target: protein farnesyltransferase (Rattus norvegicus, UniProt Q02293+Q04631); construct: Rat brain protein farnesyltransferase activity is measured; from tissue; host or cells: rat brain; purified according to Reiss et al., Cell 62:81-88 (1990), steps one through three; test: in vitro inhibition of protein farnesyltransferase (scintillation proximity assay, biotin-K Ras B fragment); format: biochemical; conditions: at 1 × 10^-6 M; read-out: % inhibition of farnesyltransferase
Structures can show the parent of a compound that is named as a salt.
measured-attribute: inhibition at 1 µM (%)
State just the number; it will be interpreted in %.

Please report inhibition at 1 µM for the following molecule: CSCC[C@H](NC(=O)c1ccc(NC(=O)c2cnccc2C(F)(F)F)cc1-c1ccccc1C)C(=O)O [Example 481, lithium salt]
95

Give me measured inhibition at 1 µM, please, for this molecule: `CSCC[C@H](NC(=O)c1ccc(CNc2ccc(N3CCCCC3)cc2)cc1-c1ccccc1C)C(=O)O`
95

Look up and state reported inhibition at 1 µM for `CSCC[C@H](NC(=O)c1ccc(NC(=O)[C@@H](N)COCc2ccccc2)cc1-c1ccccc1)C(=O)O`
57

Tell us which inhibition at 1 µM value is on record for `CSCC[C@H](NC(=O)c1ccc(CNCCSC(C)(C)C)cc1-c1ccccc1)C(=O)O`
85

Give reported inhibition at 1 µM value for `CSCC[C@H](NC(=O)c1ccc(NCCO)cc1-c1ccccc1)C(=O)O`
24

Item CSCC[C@H](NC(=O)c1ccc(CN(C)C(C)(C)Cc2ccccc2)cc1-c1ccccc1C)C(=O)O [Example 982, lithium salt] : provide inhibition at 1 µM
64

Answer with the recorded inhibition at 1 µM of `CSCC[C@H](NC(=O)c1ccc(CN(Cc2ccccc2)c2ccccc2)cc1-c1ccccc1C)C(=O)O` only.
95
